// provenance: the FLAb antibody collection (doi:10.7554/elife.23156)

B1: scFv; the commonest letter at each place (parent)
chain 1: EVKLDETGGGLVQPGRPMKLSCVASGFTFSDYWMNWVRQSPEKGLEWVAQIRNKPYNYETYYSDSVKGRFTISRDDSKSSVYLQMNNLRVEDMGIYYCTGSYYGMDYWGQGTSVTVS
chain 2: DVVMTQTPLSLPVSLGDQASISCRSSQSLVHSNGNTYLRWYLQKPGQSPKVLIYKVSNRFSGVPDRFSGSGSGTDFTLKISRVEAEDLGVYFCSQSTHVPWTFGGGTKLEIK

Variants of: B1
Assay: yeast surface expression (ratio to wild type); higher = more expressed
Conditions: format: scFv 4-4-20, heavy + light
RECORDED_ENDPOINT: yeast surface expression
Give the figure only, with no unit attached.

The cases that follow already have their yeast surface expression on record.
{"MUTATION_NAME": "chain 1 N35H", "yeast surface expression": 0.793}
{"MUTATION_NAME": "chain 1 G100V S101N", "yeast surface expression": 0.787}
{"MUTATION_NAME": "chain 1 M34T", "yeast surface expression": 0.777}
{"MUTATION_NAME": "chain 1 S101T D106Q", "yeast surface expression": 0.796}

Please turn your attention to the following entry.
## Task Looking for the measured yeast surface expression of chain 1 Y32H N35Q , can you help?
## Result 0.811
